Entry source: patent US8722661B2

- Experimental target: UniProt P09874
- Sequence (P09874 whole entry): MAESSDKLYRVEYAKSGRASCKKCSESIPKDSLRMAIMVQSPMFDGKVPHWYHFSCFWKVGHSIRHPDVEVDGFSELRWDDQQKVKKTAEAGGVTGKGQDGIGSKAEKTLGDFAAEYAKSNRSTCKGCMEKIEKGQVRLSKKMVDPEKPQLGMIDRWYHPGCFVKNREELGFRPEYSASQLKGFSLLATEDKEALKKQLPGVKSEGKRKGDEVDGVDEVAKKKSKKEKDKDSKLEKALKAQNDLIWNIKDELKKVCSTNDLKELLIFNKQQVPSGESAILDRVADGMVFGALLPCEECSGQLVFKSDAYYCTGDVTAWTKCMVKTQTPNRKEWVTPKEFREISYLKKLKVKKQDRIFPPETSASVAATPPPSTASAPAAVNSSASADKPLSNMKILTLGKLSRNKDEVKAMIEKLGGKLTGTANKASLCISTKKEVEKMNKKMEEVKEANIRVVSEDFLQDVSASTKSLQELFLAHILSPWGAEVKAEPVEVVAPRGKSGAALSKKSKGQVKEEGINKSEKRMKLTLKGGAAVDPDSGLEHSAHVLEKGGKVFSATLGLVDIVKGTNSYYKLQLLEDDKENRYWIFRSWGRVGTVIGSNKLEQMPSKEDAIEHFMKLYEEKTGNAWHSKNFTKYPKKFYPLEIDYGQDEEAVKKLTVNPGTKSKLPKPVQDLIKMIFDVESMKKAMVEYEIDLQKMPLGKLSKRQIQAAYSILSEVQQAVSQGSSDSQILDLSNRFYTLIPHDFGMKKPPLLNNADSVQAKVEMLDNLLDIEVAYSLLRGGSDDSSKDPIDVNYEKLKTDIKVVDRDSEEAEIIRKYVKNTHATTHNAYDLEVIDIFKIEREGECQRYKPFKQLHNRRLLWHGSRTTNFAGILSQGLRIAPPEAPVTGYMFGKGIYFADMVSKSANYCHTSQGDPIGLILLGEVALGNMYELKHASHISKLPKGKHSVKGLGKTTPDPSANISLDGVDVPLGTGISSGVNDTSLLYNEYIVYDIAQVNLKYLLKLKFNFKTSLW
pIC50: −log10 of the molar value.
Property measured: pIC50

For orientation, consider the following solved cases.
{"Compound": "Cn1ccc2c(=O)[nH]c(-c3ccc(C(F)(F)F)cc3)nc21 [Example 38]", "pIC50": 6.11}
{"Compound": "C=CCCn1ccc2c(=O)[nH]c(N3CCN(c4ccccc4Cl)CC3)nc21 [Example 27]", "pIC50": "< 4.30"}

Now for the compound whose pIC50 we want.
Exam item: Bench note: what pIC50 did Cn1ccc2c(=O)[nH]c(N3CCN(c4cc(Cl)cc(Cl)c4)CC3)nc21 [Example 7] show?
Marked response: < 4.30
